biological target: Cloned human M1 receptor (CHRM1) stably expressed in HEK293 cells (Homo sapiens, UniProt P11229); construct: expressed in transfected cells; host or cells: HEK293; experiment: CHRM1 Ca++ Flux Assay (agonist mode, FDSS 7000EX); format: cell-based; settings: HEK293, Percent Activity, read-out: M1 FDSS PA
Sequence (P11229 whole entry): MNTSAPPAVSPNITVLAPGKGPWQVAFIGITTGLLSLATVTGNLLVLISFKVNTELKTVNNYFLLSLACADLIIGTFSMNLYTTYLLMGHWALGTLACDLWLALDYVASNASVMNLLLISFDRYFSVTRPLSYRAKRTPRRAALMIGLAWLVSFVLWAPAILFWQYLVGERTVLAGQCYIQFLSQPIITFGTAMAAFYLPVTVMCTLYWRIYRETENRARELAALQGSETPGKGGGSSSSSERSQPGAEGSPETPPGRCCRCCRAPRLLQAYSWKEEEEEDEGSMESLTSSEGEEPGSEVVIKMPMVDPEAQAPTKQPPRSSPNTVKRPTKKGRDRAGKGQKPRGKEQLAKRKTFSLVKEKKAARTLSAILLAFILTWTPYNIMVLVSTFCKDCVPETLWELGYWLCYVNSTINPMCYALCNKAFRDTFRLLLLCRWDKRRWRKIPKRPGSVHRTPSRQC
Use 60% as the dividing line for Emax, with the line itself on the T side and lower values as F.

Request: Does the compound COc1ccccc1C1CCN([C@@H]2CCC3(C2)CN(c2nncs2)C3)CC1 [Example 3D] have recorded Emax that is 60% or more?
Response: T

* * *

molecular target: human cloned CHRM2 receptor (M2_CHO cells) (Homo sapiens); construct: expressed in transfected cells; host or cells: CHO-K1; test: CHRM2 Ca++ Flux Assay (agonist mode, FDSS 7000EX); type: cell-based; details: Percent Activity measured to EC100 of Carbachol
Sequence (P08172 whole entry): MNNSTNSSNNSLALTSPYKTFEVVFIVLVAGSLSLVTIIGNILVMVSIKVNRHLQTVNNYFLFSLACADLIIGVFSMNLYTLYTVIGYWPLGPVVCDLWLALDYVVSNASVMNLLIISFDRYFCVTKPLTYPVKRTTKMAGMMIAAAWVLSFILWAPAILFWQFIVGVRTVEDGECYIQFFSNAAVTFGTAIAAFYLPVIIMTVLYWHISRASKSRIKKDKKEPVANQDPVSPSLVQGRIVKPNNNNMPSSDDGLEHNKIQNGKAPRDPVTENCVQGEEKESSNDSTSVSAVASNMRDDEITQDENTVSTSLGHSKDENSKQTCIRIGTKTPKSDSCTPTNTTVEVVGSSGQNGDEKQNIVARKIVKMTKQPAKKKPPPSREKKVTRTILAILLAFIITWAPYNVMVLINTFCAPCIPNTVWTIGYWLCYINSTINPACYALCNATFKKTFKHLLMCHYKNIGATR
reported endpoint: M2 FDSS PA (%)
All answers are understood in %, so give the number only.

Solved cases (2 shown):
{"compound": "O=C(N1CC2(CC[C@@H](N3CCC(c4ccccc4OCCO)CC3)C2)C1)C1(F)CC1 (single isomer, unassigned) [Example 7N]", "M2 FDSS PA / %": 0}
{"compound": "CC(C)(O)CCOc1ccccc1C1CCN([C@@H]2CCC3(C2)CN(C(=O)C2(F)CC2)C3)CC1 (single isomer, unassigned) [Example 7BB]", "M2 FDSS PA / %": 0}

Request: Look up M2 FDSS PA with human cloned CHRM2 receptor (M2_CHO cells) (Homo sapiens) for this compound: COc1ccccc1C1CCN([C@H]2CCC3(C2)CN(c2ncco2)C3)CC1 (single isomer, unassigned) [Example 10I]
Response: 0

* * *

target: human cloned CHRM4 receptor (M4_CHO cells) (Homo sapiens, UniProt P08173); construct: expressed in transfected cells; host or cells: CHO-K1; assay: CHRM4 Ca++ Flux Assay (agonist mode, FDSS 7000EX); type: cell-based; conditions: Percent Activity
Sequence (P08173 whole entry): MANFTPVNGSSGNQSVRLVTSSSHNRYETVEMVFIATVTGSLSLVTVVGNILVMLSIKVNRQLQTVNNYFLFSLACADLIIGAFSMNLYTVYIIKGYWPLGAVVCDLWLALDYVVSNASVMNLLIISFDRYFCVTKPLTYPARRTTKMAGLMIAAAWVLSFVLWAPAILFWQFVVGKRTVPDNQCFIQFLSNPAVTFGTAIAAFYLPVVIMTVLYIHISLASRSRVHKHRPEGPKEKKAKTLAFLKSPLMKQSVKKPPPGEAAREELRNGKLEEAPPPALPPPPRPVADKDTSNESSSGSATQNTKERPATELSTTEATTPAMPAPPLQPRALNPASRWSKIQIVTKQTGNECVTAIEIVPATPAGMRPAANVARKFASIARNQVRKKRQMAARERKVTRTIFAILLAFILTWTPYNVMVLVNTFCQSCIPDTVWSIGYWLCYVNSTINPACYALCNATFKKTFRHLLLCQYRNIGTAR
M4 FDSS PA less than 60% is criterion met; M4 FDSS PA greater than or equal to 60% is criterion not met.

Field: example entries. Status: answers known.
{"molecule": "O=C(N1CC2(CC[C@@H](N3CCC(c4ccccc4OCC4CCOCC4)CC3)C2)C1)C1(F)CC1 (single isomer, unassigned)", "measured on": "human cloned CHRM4 receptor (M4_CHO cells) (Homo sapiens, UniProt P08173)", "assigned class": "criterion met"}
{"molecule": "COc1ccc(Cl)cc1C1CCN([C@H]2CCC3(C2)CN(C(=O)C2(F)CC2)C3)CC1 (single isomer, unassigned) [Example 8B]", "measured on": "human cloned CHRM4 receptor (M4_CHO cells) (Homo sapiens, UniProt P08173)", "assigned class": "criterion not met"}
{"molecule": "CCOc1ccccc1C1CCN([C@@H]2CCC3(C2)CN(C(=O)C2(F)CC2)C3)CC1 (single isomer, unassigned)", "measured on": "human cloned CHRM4 receptor (M4_CHO cells) (Homo sapiens, UniProt P08173)", "assigned class": "criterion met"}
{"molecule": "COc1ccccc1C1CCN([C@@H]2CCC3(C2)CN(c2ncns2)C3)CC1 (single isomer, unassigned) [Example 10Q]", "measured on": "human cloned CHRM4 receptor (M4_CHO cells) (Homo sapiens, UniProt P08173)", "assigned class": "criterion not met"}
{"molecule": "Fc1ccc(OC2CCOCC2)c(C2CCN([C@@H]3CCC4(C3)CN(c3cncnc3)C4)CC2)c1 (single isomer, unassigned) [Example 10H]", "measured on": "human cloned CHRM4 receptor (M4_CHO cells) (Homo sapiens, UniProt P08173)", "assigned class": "criterion met"}

Moving on to another molecule below.
Request: Is M4 FDSS PA strictly under 60% for the entry COC(C)(C)CCOc1ccccc1C1CCN([C@@H]2CCC3(C2)CN(C(=O)C2(F)CC2)C3)CC1 (single isomer, unassigned) ?
Response: criterion met

* * *

# maps each entry to its M5 FDSS PA
biological target: human cloned CHRM5 receptor (M5_CHO) (Homo sapiens); construct: expressed in transfected cells; host or cells: CHO (M5_CHO); experiment: CHRM5 Ca++ Flux Assay (agonist mode, FDSS 7000EX); type: cell-based; details: Percent Activity measured to EC100 of Carbachol
Field: numeric (%). Do not append units.

{"compound": "COc1ccccc1C1CCN([C@@H]2CCC3(C2)CN(c2ncns2)C3)CC1 (single isomer, unassigned) [Example 10Q]", "M5 FDSS PA, %": 0}
{"compound": "O=C(N1CC2(CC[C@@H](N3CCC(c4ccccc4OC4CCOCC4)CC3)C2)C1)C1(F)CC1 (single isomer, unassigned) [Example 9E]", "M5 FDSS PA, %": 0}

Request: Given the compound O=C(N1CC2(CC[C@@H](N3CCC(c4cc(F)ccc4C4(O)CCOCC4)CC3)C2)C1)C1(F)CC1 (single isomer, unassigned) [Example 9J] , what is its reported M5 FDSS PA?
Response: 0

Request: Record: CCOc1ccccc1C1CCN([C@@H]2CCC3(C2)CN(C(=O)C2(F)CC2)C3)CC1 (single isomer, unassigned)
Response: 0

Request: Also check O[C@H]1CC[C@@H](c2ccccc2C2CCN([C@@H]3CCC4(C3)CN(c3nnco3)C4)CC2)CC1 (single isomer, unassigned)
Response: 0

Request: Also Cc1nnc(COc2ccccc2C2CCN([C@@H]3CCC4(C3)CN(C(=O)C3(F)CC3)C4)CC2)o1 (single isomer, unassigned) [Example 7W] ?
Response: 8

* * *

target: human cloned CHRM4 receptor (M4_CHO cells) (Homo sapiens); construct: expressed in transfected cells; host or cells: CHO-K1; assay: CHRM4 Ca++ Flux Assay (agonist mode, FDSS 7000EX); assay type: cell-based; details: geometric mean if tested more than once, read-out: M4 FDSS EC50
Let's look at some compounds and their measured pEC50.
// returns pEC50 (minus log10 of molar concentration), number only

These solved cases illustrate the format of a correct answer.
{"compound string": "COc1ccccc1C1CCN([C@@H]2CCC3(C2)CN(c2nc(C)ns2)C3)CC1", "measured on": "human cloned CHRM4 receptor (M4_CHO cells) (Homo sapiens)", "pEC50": 7.74}
{"compound string": "COc1ccccc1C1CCN([C@@H]2CCC3(C2)CN(c2ccnnc2)C3)CC1", "measured on": "human cloned CHRM4 receptor (M4_CHO cells) (Homo sapiens)", "pEC50": 6.89}
{"compound string": "O=C(C1COC1)N1CC2(CC[C@@H](N3CCC(c4ccccc4OCC(F)F)CC3)C2)C1", "measured on": "human cloned CHRM4 receptor (M4_CHO cells) (Homo sapiens)", "pEC50": 8.70}
{"compound string": "FC1(COc2ccccc2C2CCN([C@@H]3CCC4(C3)CN(c3nnco3)C4)CC2)CCOCC1", "measured on": "human cloned CHRM4 receptor (M4_CHO cells) (Homo sapiens)", "pEC50": 9.00}
{"compound string": "COc1ccccc1C1CCN([C@@H]2CCC3(C2)CN(c2nncs2)C3)CC1", "measured on": "human cloned CHRM4 receptor (M4_CHO cells) (Homo sapiens)", "pEC50": 8.70}

Request: Item `c1ccc(C2CCN([C@@H]3CCC4(C3)CN(c3nnco3)C4)CC2)c(-c2ncco2)c1` has what recorded pEC50?
Response: 8.22

* * *

target: human cloned CHRM5 receptor (M5_CHO) (Homo sapiens, UniProt P08912); construct: expressed in transfected cells; host or cells: CHO (M5_CHO); assay: CHRM5 Ca++ Flux Assay (agonist mode, FDSS 7000EX); type: cell-based; settings: Percent Activity measured to EC100 of Carbachol; read-out: M5 FDSS PA
Sequence (P08912 whole entry): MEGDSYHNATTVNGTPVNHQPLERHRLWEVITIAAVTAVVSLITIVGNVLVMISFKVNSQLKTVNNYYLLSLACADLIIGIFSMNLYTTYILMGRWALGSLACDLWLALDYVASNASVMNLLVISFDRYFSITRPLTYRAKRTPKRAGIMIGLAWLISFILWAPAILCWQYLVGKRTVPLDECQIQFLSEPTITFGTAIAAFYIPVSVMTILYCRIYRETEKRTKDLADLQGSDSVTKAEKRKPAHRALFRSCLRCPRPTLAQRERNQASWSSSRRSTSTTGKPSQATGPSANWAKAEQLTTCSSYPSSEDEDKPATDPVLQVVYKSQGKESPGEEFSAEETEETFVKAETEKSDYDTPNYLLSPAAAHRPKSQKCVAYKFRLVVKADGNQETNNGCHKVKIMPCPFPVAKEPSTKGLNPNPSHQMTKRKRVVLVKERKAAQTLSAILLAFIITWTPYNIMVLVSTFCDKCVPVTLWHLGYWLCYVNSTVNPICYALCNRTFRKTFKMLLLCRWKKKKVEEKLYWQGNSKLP
reported endpoint: Emax (%)
Unit % implied. Number only.

{"compound string": "O=C(C1COC1)N1CC2(CC[C@@H](N3CCC(c4ccccc4OC[C@@H]4CCOC4)CC3)C2)C1", "unit tag": "%", "Emax": 13}
{"compound string": "CC(C)(O)COc1ccccc1C1CCN([C@@H]2CCC3(C2)CN(c2nncs2)C3)CC1", "unit tag": "%", "Emax": 0}
{"compound string": "c1ccc(C2CCN([C@@H]3CCC4(C3)CN(c3cncnc3)C4)CC2)c(O[C@@H]2CCOC2)c1", "unit tag": "%", "Emax": 0}

Kindly review the next compound as well.
Request: Given the compound `Fc1cncc(N2CC3(CC[C@@H](N4CCC(c5ccccc5C5CCOCC5)CC4)C3)C2)c1` , what is its reported Emax?
Response: 0

* * *

target: human cloned CHRM2 receptor (M2_CHO cells) (Homo sapiens); construct: expressed in transfected cells; host or cells: CHO-K1; test: CHRM2 Ca++ Flux Assay (agonist mode, FDSS 7000EX); format: cell-based; settings: Percent Activity measured to EC100 of Carbachol; read-out: M2 FDSS PA
reported endpoint: Emax (%)
Note: unit % is implicit; provide only the numeric part.

Illustrative cases are given below, each with its answer.
{"compound": "O=C(C1COC1)N1CC2(CC[C@@H](N3CCC(c4ccccc4OC[C@@H]4CCOC4)CC3)C2)C1 [Example 7E]", "reported endpoint": "Emax", "numeric result": 23}
{"compound": "COc1ccccc1C1CCN([C@@H]2CCC3(C2)CN(c2nccnc2C(F)(F)F)C3)CC1 [Example 5I]", "reported endpoint": "Emax", "numeric result": 49}
{"compound": "O=C(C1COC1)N1CC2(CC[C@@H](N3CCC(c4ccc(F)cc4OC(F)F)CC3)C2)C1 [Example 6B]", "reported endpoint": "Emax", "numeric result": 0}
{"compound": "c1ccc(C2CCOC2)c(C2CCN([C@@H]3CCC4(C3)CN(c3nnco3)C4)CC2)c1 (stereo partly shown) [Example 2K]", "reported endpoint": "Emax", "numeric result": 29}
{"compound": "COc1ccc(Cl)cc1C1CCN([C@@H]2CCC3(C2)CN(c2ccnnc2)C3)CC1 [Example 5P]", "reported endpoint": "Emax", "numeric result": 16}
{"compound": "c1ccc(C2CCN([C@@H]3CCC4(C3)CN(c3nnco3)C4)CC2)c(OCC2CCOCC2)c1 [Example 2G]", "reported endpoint": "Emax", "numeric result": 19}
{"compound": "c1ccc(C2CCN([C@@H]3CCC4(C3)CN(c3cncnc3)C4)CC2)c(OC2COC2)c1 [Example 1K]", "reported endpoint": "Emax", "numeric result": 19}
{"compound": "c1ccc(C2CCN([C@@H]3CCC4(C3)CN(c3nncs3)C4)CC2)c(OC2COC2)c1 [Example 3A]", "reported endpoint": "Emax", "numeric result": 21}
{"compound": "Fc1cccc(C2CCN([C@@H]3CCC4(C3)CN(c3nncs3)C4)CC2)c1OC1COC1 [Example 3E]", "reported endpoint": "Emax", "numeric result": 31}
{"compound": "Cc1ccc(N2CC3(CC[C@@H](N4CCC(c5ccccc5O[C@@H]5CCOC5)CC4)C3)C2)cn1 [Example 5L]", "reported endpoint": "Emax", "numeric result": 36}

Now for a further compound.
Request: Form field: reported Emax of Fc1ccc(OC2CC3(COC3)C2)c(C2CCN([C@@H]3CCC4(C3)CN(c3nnco3)C4)CC2)c1 [Example 1B]
Response: 0
